Assignment: determine reported Kd for the given molecules.
Assay: Binding affinity to Escherichia coli sliding clamp assessed as dissociation constant by ITC analysis
*1 amine or outer side, *2 acyl side, *3 side chain or, on linkers, in order; H or OH if unused. Where a SMILES comes first, the peptide text is derived from it. [ ]: non-standard residue; d: D form. ACHC(1S,2S) = O=C([C@H]1CCCC[C@@H]1N[*:1])[*:2]; Oic = O=C(O)[C@@H]1C[C@@H]2CCCC[C@@H]2N1; Cha = N[C@@H](CC1CCCCC1)C(=O)O; Sar = CNCC(=O)O
Give just the numeric value; nM need not be written.

Ask | Name the recorded Kd of the molecule listed here: CC(=O)N[C@@H](CCC(N)=O)C(=O)N[C@@H](CC1CCCCC1)C(=O)N[C@@H](CC(=O)O)C(=O)N[C@@H](CC(C)C)C(=O)NCC(=O)N[C@@H](CC(C)C)C(=O)O (Ac-Q[Cha]DLGL-OH)
Reply | 682

Ask | Name the recorded Kd of the molecule listed here: CC(=O)N[C@@H](CCC(N)=O)C(=O)N[C@@H](CC1CCCCC1)C(=O)N[C@@H](CC(=O)O)C(=O)N[C@@H](CC(C)C)C(=O)N1[C@H](C(=O)N[C@@H](CC(C)C)C(=O)O)C[C@@H]2CCCC[C@@H]21 (Ac-Q[Cha]DL[Oic]L-OH)
Reply | 57

Ask | Name the recorded Kd of the molecule listed here: CC(=O)N[C@@H](CCC(N)=O)C(=O)N[C@@H](CC1CCCCC1)C(=O)N[C@@H](CC(=O)O)C(=O)N[C@@H](CC(C)C)C(=O)N[C@H]1CCCC[C@@H]1C(=O)N[C@@H](CC(C)C)C(=O)O (Ac-Q[Cha]DL[ACHC(1S,2S)]L-OH)
Reply | 4070

Ask | Name the recorded Kd of the molecule listed here: CC(=O)N[C@@H](CCC(N)=O)C(=O)N[C@@H](CC1CCCCC1)C(=O)N[C@@H](CC(=O)O)C(=O)N[C@@H](CC(C)C)C(=O)N(C)CC(=O)N[C@@H](CC(C)C)C(=O)O (Ac-Q[Cha]DL[Sar]L-OH)
Reply | 583
